B1: TSN (parent)
chain: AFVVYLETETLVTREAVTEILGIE

Variants of: B1
Experiment: protein stability index of a GFP-peptide fusion (GPS, HEK-293T) (PSI 1-6); higher = more stable;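 further: lentivirally expressed fusions sorted by FACS into six bins by GFP to DsRed ratio, PSI derived from sequencing read proportions per bin multiplied by bin number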
Settings: c terminus: a fixed tail appended
measured-attribute: protein stability index
Number only, no unit.

Return value of protein stability index for input "E19H" , no commentary.
2.31

Return value of protein stability index for input "G22H" , no commentary.
3.32

Return value of protein stability index for input "F2D" , no commentary.
3.68

Further cases:
Return value of protein stability index for input "G22E" , no commentary.
2.82

Return value of protein stability index for input "E7P" , no commentary.
2.19

Return value of protein stability index for input "E7C" , no commentary.
1.79

Return value of protein stability index for input "V17T" , no commentary.
3.01

Return value of protein stability index for input "E15D" , no commentary.
3.69
